Test system: Vero
Assay: Cytotoxicity in Vero cell line
Format: functional
Settings: Chlorocebus sabaeus
metric: CC50

* O=c1[nH]c(=O)n([C@@H]2CO[C@H](CO)O2)cc1/C=C/Br | 100 µg/mL
* O=c1[nH]c(=O)n([C@@H]2CO[C@@H](CO)O2)cc1/C=C/Br | 100 µg/mL
* O=c1[nH]c(=O)n([C@@H]2CO[C@H](CO)S2)cc1/C=C/Br | > 100 µg/mL
* O=c1[nH]c(=O)n([C@H]2CO[C@@H](CO)O2)cc1/C=C/Br | 100 µg/mL
* O=c1[nH]c(=O)n([C@@H]2CO[C@@H](CO)S2)cc1/C=C/Br | 30 µg/mL

###

Tested on: F2002 cell line
Experiment: Inhibitory activity against human cytomegalo virus (WFI strain) in a plaque reduction assay in flow 2002 human fibroblast cells
Assay type: functional, cell-based
metric: IC50 (µg/mL)

* O=c1[nH]c(=O)n([C@@H]2CO[C@@H](CO)O2)cc1/C=C/Br | 25
* O=c1[nH]c(=O)n([C@@H]2CO[C@H](CO)O2)cc1/C=C/Br | 5
* O=c1[nH]c(=O)n([C@@H]2CO[C@@H](CO)S2)cc1/C=C/Br | 80
* Nc1nc2c(ncn2COC(CO)CO)c(=O)[nH]1 | 0.1

###

Parameter CC50: see the listing below.
Tested on: Vero
Test: Cytotoxicity in Vero cell line
Type: functional
Conditions: Chlorocebus sabaeus
metric: CC50 (µg/mL)

• O=c1[nH]c(=O)n([C@H]2CO[C@H](CO)S2)cc1/C=C/Br = 100
• O=c1[nH]c(=O)n([C@H]2CO[C@@H](CO)S2)cc1/C=C/Br = 100
• O=c1[nH]c(=O)n([C@H]2CO[C@H](CO)O2)cc1/C=C/Br = 100

###

Assay: Cytotoxicity in Flow 2002 cell line
Type: cell-based
Conditions: human, Flow 2002 cells
metric: CC50 (µg/mL)

* O=c1[nH]c(=O)n([C@@H]2CO[C@H](CO)O2)cc1/C=C/Br | 30
* O=c1[nH]c(=O)n([C@@H]2CO[C@@H](CO)O2)cc1/C=C/Br | 100
* O=c1[nH]c(=O)n([C@H]2CO[C@@H](CO)S2)cc1/C=C/Br | 100
* O=c1[nH]c(=O)n([C@@H]2CO[C@H](CO)S2)cc1/C=C/Br | 100
* O=c1[nH]c(=O)n([C@H]2CO[C@H](CO)O2)cc1/C=C/Br | 30
* O=c1[nH]c(=O)n([C@@H]2CO[C@@H](CO)S2)cc1/C=C/Br | 100

###

Test system: F2002 cell line
Test: Inhibitory activity against human cytomegalo virus (WFI strain) in a plaque reduction assay in flow 2002 human fibroblast cells
Assay type: functional, cell-based
Here the recorded IC50 is given for each entry.
metric: IC50

* O=c1[nH]c(=O)n([C@H]2CO[C@@H](CO)S2)cc1/C=C/Br | > 100 µg/mL
* O=c1[nH]c(=O)n([C@H]2CO[C@H](CO)S2)cc1/C=C/Br | > 100 µg/mL
* O=c1[nH]c(=O)n([C@@H]2CO[C@H](CO)S2)cc1/C=C/Br | > 100 µg/mL
* O=c1[nH]c(=O)n([C@H]2CO[C@H](CO)O2)cc1/C=C/Br | > 30 µg/mL
* O=c1[nH]c(=O)n([C@H]2CO[C@@H](CO)O2)cc1/C=C/Br | > 100 µg/mL

###

Quick list: CC50 per entry.
Test: Cytotoxicity in Flow 2002 cell line
Format: cell-based
Conditions: human, Flow 2002 cells
metric: CC50

• O=c1[nH]c(=O)n([C@H]2CO[C@H](CO)S2)cc1/C=C/Br = > 100 µg/mL
• O=c1[nH]c(=O)n([C@H]2CO[C@@H](CO)O2)cc1/C=C/Br = > 100 µg/mL
• Nc1nc2c(ncn2COC(CO)CO)c(=O)[nH]1 [GANCICLOVIR] = > 100 µg/mL

Data origin: ChEMBL document CHEMBL1151552
